B1: scFv; the commonest letter at each place (parent)
chain 1: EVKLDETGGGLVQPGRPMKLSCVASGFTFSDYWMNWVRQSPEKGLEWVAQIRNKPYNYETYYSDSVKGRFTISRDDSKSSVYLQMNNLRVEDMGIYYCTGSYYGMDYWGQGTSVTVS
chain 2: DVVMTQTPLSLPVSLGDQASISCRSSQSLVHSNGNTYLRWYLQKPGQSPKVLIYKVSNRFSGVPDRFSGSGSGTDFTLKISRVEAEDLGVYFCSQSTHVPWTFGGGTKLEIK

variants of: B1; assay: Kd (Tite-Seq); details: with fluorescein; format: scFv 4-4-20, heavy + light
pKd: −log10 of the molar value.
measured-quantity: pKd

- chain 1 W33I M34F: ≤ 5.00
- chain 1 T28Q N35P: 6.08
- chain 1 Y103A G104Y G109T: ≤ 5.00
- chain 1 M105K Y107L G109V: ≤ 5.00
- chain 1 D31G M34C N35L: ≤ 5.00
- chain 1 D31E W36Q: ≤ 5.00
- chain 1 F29N S30P M34H: ≤ 5.00
- chain 1 M105S G109H: ≤ 5.00
- chain 1 S101R G109M: ≤ 5.00
- chain 1 D31T W33N: ≤ 5.00
- chain 1 T28N W36K: ≤ 5.00
- chain 1 G104L Y107C: ≤ 5.00
- chain 1 G100S D106C: ≤ 5.00
- chain 1 D106Y: ≤ 5.00
- chain 1 Y102A M105F: 8.24
- chain 1 G100L G104S: ≤ 5.00
- chain 1 T28P Y32C: 8.17
- chain 1 S30C Y32V: ≤ 5.00
- chain 1 F29E Y32V: ≤ 5.00
- chain 1 D106L G109H: ≤ 5.00
- chain 1 V37S: 8.25
- chain 1 W33Q N35W: ≤ 5.00
- chain 1 Y103W G109A: ≤ 5.00
- chain 1 S101H D106C: ≤ 5.00
- chain 1 Y102Q G104T: ≤ 5.00
- chain 1 T28W N35H: ≤ 5.00
- chain 1 Y107E W108E: ≤ 5.00
- chain 1 M105Q D106S: 7.09
- chain 1 D31I Y32A: 8.35
- chain 1 S30Q W33S: ≤ 5.00
- chain 1 Y102H Y103E: 6.71
- chain 1 F29Q S30C N35I: ≤ 5.00
- chain 1 G104Q: ≤ 5.00
- chain 1 Y103G: 7.77
- chain 1 T28V F29D: ≤ 5.00
- chain 1 G100P: ≤ 5.00
- chain 1 S101I G104Q: ≤ 5.00
- chain 1 S30G N35P W36F: ≤ 5.00
- chain 1 Y103F W108K: 7.77
- chain 1 D31C V37K: ≤ 5.00
- chain 1 D31E: 8.56
- chain 1 M34A V37I: 6.31
- chain 1 Y102Q G104H: ≤ 5.00
- chain 1 Y32C M34K: ≤ 5.00
- chain 1 T28Y F29W: ≤ 5.00
- chain 1 Y102V W108Y: 9.30
